- EXPERIMENTAL_SYSTEM: human parathyroid hormone receptor 2 (human, UniProt P49190)
- TEST_DESCRIPTION: cell-based or functional assay
Starred links: 1 amine or outer side, 2 acyl side, 3 side chain; linkers in the order of their positions; H or OH if unused. Non-standard residues stand in square brackets, D forms with d. No end group written: not given here. hSer(OMe) = COCC[C@H](N[*:1])C(=O)[*:2]; 1Nal = N[C@@H](Cc1cccc2ccccc12)C(=O)O; β3hI = CC[C@H](C)[C@H](N)CC(=O)O; Nle = CCCC[C@H](N)C(=O)O; βAla = NCCC(=O)O
MEASURED_PARAMETER: hPTHR-2 EC50 (nM), luciferase reporter gene assay
Numeric only. Scale: nM

Solved cases (3 shown):
SVSEIQL[Nle]HNLGKHLKS[β3hI]ERVE[1Nal]LRKLLQDVHNF-NH2 [[Nle^8, Lys^16, β-hIle^18, 1-Nal^23, Leu^27] hPTH (1-34)-NH2] ... 30
SVSEIQL[Nle]HNLGKHLN[βAla][hSer(OMe)]ERVE[1Nal]LRKLLQDVHNF-NH2 [[Nle^8, β-Ala^17, hSer(OMe)^18, 1-Nal^23, Leu^27] hPTH (1-34)-NH2] ... 93
SVSEIQL[Nle]HNLGKHLNS[β3hI]ERVE[1Nal]LRKLLQDVHNF-OH [[Nle^8, β-hIle^18, 1-Nal^23, Leu^27] hPTH (1-34)-OH] ... 23

Read the next record carefully.
Req: Query: hPTHR-2 EC50 (nM), luciferase reporter gene assay; subject: SVSEIQL[Nle]HNLGKHLNS[β3hI]ERVE[1Nal]LRKLLQHVHNF-NH2 [[Nle^8, β-hIle^18, 1-Nal^23, Leu^27, His^30] hPTH (1-34)-NH2]
Resp: 13
